Attribution: paper PMC7265341

Molecular target: CDK17/Cyclin Y (Homo sapiens)
Sequence (Q00537 whole entry): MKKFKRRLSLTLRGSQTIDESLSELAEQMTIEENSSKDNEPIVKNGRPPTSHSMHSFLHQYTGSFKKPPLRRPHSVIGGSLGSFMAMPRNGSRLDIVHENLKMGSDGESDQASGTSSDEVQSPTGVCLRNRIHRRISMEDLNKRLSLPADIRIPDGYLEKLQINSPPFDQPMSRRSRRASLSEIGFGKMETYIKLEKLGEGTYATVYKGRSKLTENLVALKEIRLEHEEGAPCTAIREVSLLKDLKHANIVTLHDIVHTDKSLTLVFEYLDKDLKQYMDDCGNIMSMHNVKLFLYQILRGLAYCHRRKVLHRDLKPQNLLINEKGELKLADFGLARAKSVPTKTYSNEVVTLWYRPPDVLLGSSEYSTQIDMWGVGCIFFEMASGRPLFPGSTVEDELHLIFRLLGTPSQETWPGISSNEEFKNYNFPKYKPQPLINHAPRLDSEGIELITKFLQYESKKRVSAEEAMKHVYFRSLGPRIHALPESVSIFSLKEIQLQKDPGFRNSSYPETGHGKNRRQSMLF
Sequence (Q8ND76 whole entry partner): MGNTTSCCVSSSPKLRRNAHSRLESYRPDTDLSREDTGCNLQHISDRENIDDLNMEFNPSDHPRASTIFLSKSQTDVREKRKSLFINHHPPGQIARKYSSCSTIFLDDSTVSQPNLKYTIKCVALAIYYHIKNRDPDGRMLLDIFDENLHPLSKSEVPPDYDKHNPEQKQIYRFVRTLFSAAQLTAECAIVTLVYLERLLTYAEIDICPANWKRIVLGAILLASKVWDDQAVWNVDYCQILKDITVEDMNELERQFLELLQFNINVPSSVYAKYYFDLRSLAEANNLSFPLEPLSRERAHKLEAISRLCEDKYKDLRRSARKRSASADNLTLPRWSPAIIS
Assay: NanoBRET live-cell target engagement, CDK17-NanoLuc/Cyclin Y in HEK-293
Assay type: binding
Settings: CDK17/Y; experiment 2; read-out: IC50
Parameter Measured: IC50 (nM)
The response must be a number in nM with no trailing unit.

In the examples that follow, each entry is paired with its recorded IC50.
# Compound, Parameter Measured, Reported Value
rows = [
    ("CC(C)c1c2cc(-c3ccnc(N[C@H]4CC[C@H](NC5CCOCC5)CC4)n3)ccc2nn1C [LY2857785]", "IC50", 67),
    ("CS(=O)(=O)N1CCC(NC(=O)c2[nH]ncc2NC(=O)c2c(Cl)cccc2Cl)CC1 [NVP-LCQ195]", "IC50", 7.7),
]

Okay, next one:
What measured IC50 goes with CNc1nc(C)c(-c2nc(Nc3cccc(S(N)(=O)=O)c3)ncc2F)s1 [CDKI-73] ?
8.8
